# literature pull: BTK (Homo sapiens, UniProt Q06187) pIC50
# Sequence (Q06187 whole entry): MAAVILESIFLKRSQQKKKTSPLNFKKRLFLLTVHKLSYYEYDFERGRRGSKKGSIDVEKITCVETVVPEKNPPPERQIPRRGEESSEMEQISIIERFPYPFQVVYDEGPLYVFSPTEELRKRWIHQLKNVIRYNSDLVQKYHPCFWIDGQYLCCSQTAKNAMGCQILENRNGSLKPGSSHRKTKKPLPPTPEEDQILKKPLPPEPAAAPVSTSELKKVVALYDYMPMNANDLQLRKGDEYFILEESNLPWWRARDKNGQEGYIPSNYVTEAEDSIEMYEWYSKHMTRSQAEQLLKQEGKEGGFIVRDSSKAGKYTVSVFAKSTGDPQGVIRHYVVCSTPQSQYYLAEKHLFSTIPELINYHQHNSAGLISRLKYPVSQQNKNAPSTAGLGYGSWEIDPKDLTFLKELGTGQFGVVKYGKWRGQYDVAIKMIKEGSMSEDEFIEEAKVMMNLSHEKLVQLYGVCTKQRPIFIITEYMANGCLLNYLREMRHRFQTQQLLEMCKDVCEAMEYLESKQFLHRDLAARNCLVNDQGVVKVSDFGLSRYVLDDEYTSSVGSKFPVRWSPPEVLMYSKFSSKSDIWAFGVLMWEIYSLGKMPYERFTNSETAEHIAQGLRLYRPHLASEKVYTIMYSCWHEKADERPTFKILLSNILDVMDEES
pIC50: −log10 of the molar value.

Recorded pIC50, per entry:
[
  {
    "molecule": "O=C(CNc1ccccc1OC1CCCC1)N[C@@H]1CCCN(c2ncnc3[nH]ncc23)C1",
    "experimental system": "BTK (Homo sapiens, UniProt Q06187)",
    "measured attribute": "pIC50",
    "observed value": "> 7.00"
  },
  {
    "molecule": "CC(C)(C)c1csc(C(=O)N[C@@H]2CCCc3cc(-c4ncnc5[nH]ncc45)ccc32)n1",
    "experimental system": "BTK (Homo sapiens, UniProt Q06187)",
    "measured attribute": "pIC50",
    "observed value": "> 8.00"
  },
  {
    "molecule": "C=CC(=O)Nc1cccc(-c2cc(Cc3ccccc3)cc(Nc3cc(C)[nH]n3)n2)c1",
    "experimental system": "BTK (Homo sapiens, UniProt Q06187)",
    "measured attribute": "pIC50",
    "observed value": 7.62
  },
  {
    "molecule": "Cc1c(NC(=O)c2ccc(C(C)(C)C)cc2)cccc1-c1ncnc(Nc2ccc(C(=O)N3CCN(CCO)CC3)cc2)n1",
    "experimental system": "BTK (Homo sapiens, UniProt Q06187)",
    "measured attribute": "pIC50",
    "observed value": 7.89
  },
  {
    "molecule": "C=CC(=O)N1CC[C@]2(C1)C[C@H](n1c(NC(=O)c3ccc(NC(=O)CC)s3)nc3ccccc31)C2",
    "experimental system": "BTK (Homo sapiens, UniProt Q06187)",
    "measured attribute": "pIC50",
    "observed value": 6.95
  }
]

Return reported pIC50 values for all items listed beneath this line.
1. Cn1cc(-c2cn3nccc3c(N3CCC(C)(CNC(=O)c4nc(C(C)(C)C)no4)CC3)n2)cn1
2. C=CC(=O)Nc1cccc(-c2cc(-c3ccc(C(=O)Nc4cc(C(F)(F)F)ccn4)cc3)cc3cncnc23)c1
3. CCC[C@@H](Nc1cccc(Cl)c1)C(=O)N1CCC2CCN(c3ncnc4[nH]ccc34)C2C1 (stereo partly drawn)
4. CN(c1ncnc2[nH]ccc12)[C@H]1CCN(C(=O)CNc2cc(Cl)cc(Cl)c2)C1
5. CCNc1cc(N2CCC[C@@H](NC(=O)CNc3cc(Cl)cc(Cl)c3)C2)ncn1
6. Cc1ncc(COc2cc(F)cc(Oc3ccc(-c4nn([C@@H]5CCCN(C(=O)/C=C/CN(C)C)C5)c5ncnc(N)c45)cc3)c2)cn1
7. Cc1cc(-c2cc(Nc3cc4n(n3)CCNC4)ncn2)ccc1CNC(=O)c1cnc(C(C)(C)C)s1
8. CCCc1cnc(NC(=O)c2ccc(-c3nn([C@@H]4CCN(C(=O)/C=C/CN(C)C5CC5)C4)c4ncnc(N)c34)cc2)s1

// result
8.00 to 9.00
> 7.00
> 7.00
< 5.00
5.00 to 6.00
8.15
> 8.00
> 9.00

====

# literature pull: BTK (Homo sapiens) pIC50
pIC50: −log10 of the molar value.

Return reported pIC50 values for all items listed beneath this line.
1. Cc1cccc(C)c1NCC(=O)N[C@@H]1CCCN(c2ncnc3[nH]ccc23)C1
2. Cc1cc(-c2ncnc3[nH]ncc23)cnc1CNC(=O)c1cc2c(s1)CCCC2
3. C=CC(=O)N1CCC[C@@H](n2nc(-c3cnc(Oc4ccccc4)nc3)c3c(N)ncnc32)C1
4. C=CC(=O)Nc1cccc(-c2cc(-c3ccc(C(=O)Nc4cccc(C(F)(F)F)c4)cc3)cc3cncnc23)c1

// result
["5.00 to 6.00", "7.00 to 8.00", 7.99, "> 7.00"]

Return reported pIC50 values for all items listed beneath this line.
1. O=C(N[C@@H]1CCCN(c2ncnc3[nH]ccc23)C1)C(Nc1cc(F)cc(Cl)c1)C1COC1 (some centres unmarked)
2. CC#CC(=O)N1CC[C@@H](n2nc(-c3ccc(Oc4ccccc4)cc3)c3cncnc32)C1
3. C=CC(=O)Nc1cccc(Nc2cc(Nc3ccc(Oc4ccccc4)cc3)ncn2)n1
4. COCCn1cc(Nc2nccc(-c3ccc(CNC(=O)N4CCC(C(C)(C)C)C4)c(C)c3)n2)cn1 (centres unmarked)

// result
5.00 to 6.00
6.30 to 7.00
≥ 8.00
> 8.00
